Entry source: patent US20240409566A1

Entries annotated with measured Prodrug (%)
# Experiment notes: Plasma stability assay, human plasma
# Format: in vitro ADME
# Setup conditions: human, 10 min, 10 µM
Recorded metric: Prodrug (%)

Compound	U	Measurement qualifier	Numeric result
CCCC(=O)OC1CC[C@@]2(c3ccc(OC)c(OC)c3)CCN(C)[C@H]2C1 (stereo in doubt)	%	>	99.0
CCCC(=O)OCO[C@@H]1CC[C@@]2(c3ccc(OC)c(OC)c3)CCN(C)[C@H]2C1	%	=	0.5
CCCCC(=O)O[C@H]1CC[C@@]2(c3ccc(OC)c(OC)c3)CCN(C)[C@H]2C1	%	=	96.40
COc1ccc([C@@]23CC[C@H](OC(=O)N(C)C)C[C@@H]2N(C)CC3)cc1OC	%	>	99.0
COc1ccc([C@@]23CC[C@@H](OCOC(=O)C(C)(C)C)C[C@@H]2N(C)CC3)cc1OC	%	=	42.0
COc1ccc([C@@]23CC[C@@H](OC(=O)C(C)C)C[C@@H]2N(C)CC3)cc1OC	%	=	0.1
COc1ccc([C@@]23CC[C@@H](OC(=O)C(C)(C)C)C[C@@H]2N(C)CC3)cc1OC	%	>	99.0
COc1ccc([C@@]23CC[C@@H](OCOC(=O)C(C)C)C[C@@H]2N(C)CC3)cc1OC	%	=	0.1
CCCC(=O)O[C@H]1CC[C@@]2(c3ccc(OC)c(OC)c3)CCN(C)[C@H]2C1	%	=	93.04
CCCCC(=O)OC1CC[C@@]2(c3ccc(OC)c(OC)c3)CCN(C)[C@H]2C1 (stereo in doubt)	%	=	96.7
COc1ccc([C@@]23CC[C@H](OC(=O)C(C)(C)C)C[C@@H]2N(C)CC3)cc1OC	%	=	97.52
CCOC(=O)O[C@@H]1CC[C@@]2(c3ccc(OC)c(OC)c3)CCN(C)[C@H]2C1	%	=	96.0
COc1ccc([C@@]23CC[C@H](OC(=O)C(C)C)C[C@@H]2N(C)CC3)cc1OC	%	>	99.0
